system: BT-549; experiment: NCI tumour cell line growth inhibition, 48 h
Active and inactive are the calls of the source. No stated cut-off is given here; in the data, active = GI50 up to about 1.1 µM and inactive = higher.
The reply should be one of these categories: 1 = active, 0 = inactive

Recorded call for `CN(C)c1ccc(-c2nc(-c3cc4c(ccc5ccccc54)oc3=O)cs2)cc1` ? 0

====

test system: SK-MEL-2; assay: NCI tumour cell line growth inhibition, 48 h
Activity calls are given as the source filed them. Rule as the data show it: active = GI50 up to about 1.1 µM and inactive = higher.
Classes to choose from: TRUE (active), FALSE (inactive)

Completed entries (count: 3):
{"columns": ["molecule", "group"],
 "data": [
  ["CC(C(=O)O)/C(=C\\c1ccc2c(c1)OCO2)C(=O)O (stereo unspecified)", "FALSE"],
  ["CC(C)(C)O/N=C/c1cc(NC(=S)c2ccccc2)ccc1Cl", "FALSE"],
  ["COC(=O)[C@H](Cc1c[nH]c2ccccc12)NC(=O)c1ccc(CNC(=O)/C=C/c2cccc(Oc3ccccc3)c2)cc1", "FALSE"]
]}

Record request — test call for `CC(=O)O/C(C)=C\C(=O)O/N=C(\N)c1ccc(C)cc1` FALSE

State the result this test recorded for CC(C)[Si](OCC/C=C/C1CCC(=O)C1C(O)C1CCCCC1)(C(C)C)C(C)C (stereo unspecified) . FALSE

State the result this test recorded for `Cc1ccc(S(=O)(=O)N/N=c2\c(C)c(C3=NS(=O)(=O)c4cc(S(N)(=O)=O)c(Cl)cc4N3)oc3c(Cl)cc(Cl)cc23)cc1` . FALSE

# outcome recorded in this test, key = `O=C(NCc1ccccc1)c1cc2ccccc2o/c1=N\c1ccccc1F` FALSE
